Numbers sourced from PubChem BioAssay AID651610.

# inhibition listing for each entry below
experimentalDetails: inhibitors of HIV-1 Env-driven cell-cell fusion, primary screen, HeLa-JRFL effector, CEM21 target cells, luciferase (AID 651610);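 further: 0% = plate neutral controls and 100% = maraviroc near 300 nM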
conditionDetails: active compounds read high; at 16.7 µM unless noted
The whole screen tested about 360,000 compounds, of which about 3,900 (1.1%) were called active. For the sample, actives were picked, then their nearest neighbours and some compounds at random.

Look over these answered cases.
> print(dat)
                                   compound  quantityname                       testvalue
1  CC1(C(=O)N/N=C/c2cc3c(cc2Br)OCO3)CC1(Br)Br (stereo unspecified)    inhibition      102% [at 12.3 µM] (active)
2  O=C(O)CC/C(=C\c1cc2c(cc1Br)OCO2)c1nc2ccccc2s1    inhibition  -9.93% [at 12.3 µM] (inactive)
3  COc1ccccc1C(=O)NC(CCSC)C(=O)N1CCN(C(C)=O)CC1 (stereo unspecified)    inhibition  -8.21% [at 12.3 µM] (inactive)
4    C=CC1=CCN(S(=O)(=O)C(C)(C)C)[C@@H]1CCO    inhibition   21.3% [at 12.3 µM] (inactive)
5  COc1ccccc1C(=O)NC(CCSC)C(=O)N1CCN(C/C=C/c2ccccc2)CC1 (stereo unspecified)    inhibition     75.2% [at 12.3 µM] (active)

Next compound, inhibition to be filled in.
inhibition reported for this compound "O=C(N/N=C\c1cc2c(cc1Cl)OCO2)c1ccc(Br)s1" : -61.6% [at 12.3 µM] (inactive)
